Tested on: Escherichia coli
TEST SUMMARY: Antibacterial activity against Escherichia coli NKE161 harboring deletion mutation in acrB protein, vector expressing tolC gene and plasmid expressing nlpE gene
Format: functional
Collected MIC values appear next to each entry.
API: value field is a number in µg/mL; no unit string.

Some entries whose results are on file:
# COMPOUND, MIC, µg/mL
data = [
    ("Cc1onc(-c2ccccc2)c1C(=O)N[C@@H]1C(=O)N2[C@@H]1SC(C)(C)[C@@H]2C(=O)O [OXACILLIN]", 0.5),
    ("CC1(C)S[C@@H]2[C@H](NC(=O)C(c3ccccc3)S(=O)(=O)O)C(=O)N2[C@H]1C(=O)O (stereo not given in full) [SULBENICILLIN]", 1),
]

Quick one: MIC of CC1(C)S[C@@H]2[C@H](NC(=O)C(C(=O)O)c3ccccc3)C(=O)N2[C@H]1C(=O)O (stereo not given in full) [CARBENICILLIN] ? 1

Next: Cc1onc(-c2ccccc2Cl)c1C(=O)N[C@@H]1C(=O)N2[C@@H]1SC(C)(C)[C@@H]2C(=O)O [CLOXACILLIN] 0.25

Next: Cn1nnnc1SCC1=C(C(=O)O)N2C(=O)[C@@H](NC(=O)[C@H](O)c3ccccc3)[C@H]2SC1 [CEFAMANDOLE] 0.063

====

Test system: Escherichia coli
TEST SUMMARY: Antibacterial activity against Escherichia coli NKE156 harboring deletion mutation in acrB protein and vector expressing acrD gene
Format: functional
MEASURED QUANTITY: MIC (µg/mL)
API: value field is a number in µg/mL; no unit string.

Some entries whose results are on file:
# MOLECULE, NUMBER
rows = [
    ("Cc1onc(-c2ccccc2Cl)c1C(=O)N[C@@H]1C(=O)N2[C@@H]1SC(C)(C)[C@@H]2C(=O)O [CLOXACILLIN]", 1),
    ("C[C@H](CCC(=O)O)[C@H]1CC[C@H]2[C@@H]3CC[C@@H]4C[C@H](O)CC[C@]4(C)[C@H]3C[C@H](O)[C@]12C [DEOXYCHOLIC ACID]", 5000),
    ("NC(=O)OC[C@@H]1[C@H](NC(=O)/C(=N\\OCC(=O)O)c2csc(N)n2)C(=O)N1S(=O)(=O)O [CARUMONAM]", 0.031),
]

Quick one: MIC of CCOc1ccc2ccccc2c1C(=O)N[C@@H]1C(=O)N2[C@@H]1SC(C)(C)[C@@H]2C(=O)O [NAFCILLIN] ? 1

====

Test system: Escherichia coli
TEST SUMMARY: Antibacterial activity against Escherichia coli NKE96 harboring deletion mutation in acrB protein
Type: functional
Collected MIC values appear next to each entry.
API: value field is a number in µg/mL; no unit string.

Some entries whose results are on file:
# COMPOUND, UNIT ANNOTATION, NUMBER
data = [
    ("NC[C@H]1O[C@H](O[C@H]2[C@H](O)[C@@H](O[C@H]3O[C@H](CO)[C@@H](O)[C@H](N)[C@H]3O)[C@H](N)C[C@@H]2N)[C@H](O)[C@@H](O)[C@@H]1O", "µg/mL", 2),
    ("CCOc1ccc2ccccc2c1C(=O)N[C@@H]1C(=O)N2[C@@H]1SC(C)(C)[C@@H]2C(=O)O", "µg/mL", 2),
]

Next compound, please.
Param readout= MIC; system= Escherichia coli; entry= CC1(C)S[C@@H]2[C@H](NC(=O)C(c3ccccc3)S(=O)(=O)O)C(=O)N2[C@H]1C(=O)O (stereo partly drawn) ; returns value. 2
